System: CCRIS mutagenicity, Ames/micronucleus/aberration tests
Experiment description: CCRIS mutagenicity studies
Condition notes: Test System: AMES SALMONELLA TYPHIMURIUM; Strain/Indicator: TA100; Metabolic Activation: HAMSTER, LIVER, S-9, AROCLOR 1254; Method: PREINCUBATION
Calls of active or inactive are those of the source. How the calls were made is not given here.
Classes used: active, inactive

# Compound, Classification
data = [
    ("Nc1ccc(NCCO)c([N+](=O)[O-])c1", "active"),
    ("CN(C)C(=O)Nc1ccc(Cl)cc1", "inactive"),
    ("ClC(Cl)=C(Cl)Cl", "inactive"),
    ("Cc1ccccc1C", "inactive"),
    ("OCc1ccccc1", "inactive"),
    ("C1CNCCN1", "inactive"),
    ("ClC=C(Cl)Cl", "inactive"),
    ("CC(Cl)CCCC(Cl)CCCC(Cl)CCCC(Cl)CCCC(Cl)CCCC(Cl)CCCl (stereo unspecified)", "inactive"),
    ("O=[N+]([O-])c1c(Cl)c(Cl)cc(Cl)c1Cl", "inactive"),
    ("CCn1c2ccccc2c2cc(N)ccc21", "active"),
    ("ClCC(Cl)CCl", "active"),
    ("OC[P+](CO)(CO)CO", "inactive"),
    ("ClC(Br)Br", "inactive"),
    ("Clc1cccc(Cl)c1Cl", "inactive"),
    ("CC(C)NCC(O)c1ccc(O)c(O)c1 (stereo unspecified)", "inactive"),
    ("CCCCOCCOP(=O)(OCCOCCCC)OCCOCCCC", "inactive"),
]

###

System: CCRIS mutagenicity, Ames/micronucleus/aberration tests
Experiment description: CCRIS mutagenicity studies
Condition notes: Test System: AMES SALMONELLA TYPHIMURIUM; Strain/Indicator: TA98; Metabolic Activation: RAT, LIVER, S-9, KANECHLOR 500; Method: PREINCUBATION
The source made the active and inactive calls. No rule for the calls is given here.
Classes used: active, inactive

# Structure, Classification
measured = [
    ("CCc1ccccc1[N+](=O)[O-]", "inactive"),
    ("Nc1c([N+](=O)[O-])cccc1[N+](=O)[O-]", "active"),
    ("Nc1ccc(-c2ccc(N)cc2[N+](=O)[O-])c([N+](=O)[O-])c1", "active"),
    ("O=[N+]([O-])c1cccc(O)c1", "active"),
    ("O=[N+]([O-])c1ccccc1S(=O)(=O)O", "inactive"),
    ("O=[N+]([O-])c1cc(Cl)ccc1Cl", "inactive"),
    ("OC[C@H](O)CCl", "inactive"),
    ("O=[N+]([O-])c1ccc(S(=O)(=O)O)cc1", "inactive"),
    ("CC(=O)Nc1cnc2ccccc2c1", "inactive"),
]

###

System: CCRIS mutagenicity, Ames/micronucleus/aberration tests
Experiment description: CCRIS mutagenicity studies
Condition notes: Test System: AMES SALMONELLA TYPHIMURIUM; Strain/Indicator: TA98; Metabolic Activation: NONE; Method: STANDARD PLATE
Active and inactive are the calls of the source. No rule for the calls is given here.
Classes used: active, inactive

# Compound, Classification
data = [
    ("Cn1cnc2cc([N+](=O)[O-])ccc21", "inactive"),
    ("N[C@@H](Cc1ccc(N(CCCl)CCCl)cc1)C(=O)O", "inactive"),
    ("CC(C)C[C@@H]1NC(=O)[C@H](C)N(C)C(=O)CNC(=O)/C(=C/c2ccccc2)N(C)C1=O", "inactive"),
    ("Cc1c([N+](=O)[O-])cc(C)c2c1c1ccccc1n2C", "active"),
    ("Clc1nc2ccccc2nc1Cl", "inactive"),
    ("Cc1ccc2cc3c(c4c2c1CC4)C1OC1c1ccccc1-3 (stereo not drawn)", "active"),
    ("c1ccc2c(c1)ccc1ccccc12", "inactive"),
    ("CC1(C)[C@@H]2CC[C@@]1(C)C(=O)C2=O", "inactive"),
    ("C[C@H]1C=C(C=O)[C@H](C=O)[C@@H](O)[C@@H]2CC(C)(C)C[C@@H]21", "inactive"),
    ("CC1(C)COC1=O", "inactive"),
    ("Cc1cc(S(=O)(=O)O)ccc1N", "inactive"),
    ("Nc1ccccc1C(F)(F)F", "inactive"),
    ("CC(S)C(=O)NCC(=O)O (stereo not drawn)", "inactive"),
]

###

System: CCRIS mutagenicity, Ames/micronucleus/aberration tests
Experiment description: CCRIS mutagenicity studies
Condition notes: Test System: AMES SALMONELLA TYPHIMURIUM; Strain/Indicator: TA98; Metabolic Activation: RAT, LIVER, S-9, AROCLOR 1254 (30%); Method: PREINCUBATION
Calls of active or inactive are those of the source. The rule behind the calls is not given here.
Readout name: mutagenic call

# Structure, Readout name, Val
rows = [
    ("O.O.O.O.O.O.O=[N+]([O-])[O-].O=[N+]([O-])[O-].O=[N+]([O-])[O-].[La+3]", "mutagenic call", "inactive; negative"),
    ("COC(=O)NC(=S)Nc1ccccc1NC(=S)NC(=O)OC", "mutagenic call", "inactive; negative"),
    ("Oc1ccc(Cl)cc1Cc1cc(Cl)ccc1O", "mutagenic call", "inactive; negative"),
]

###

System: CCRIS mutagenicity, Ames/micronucleus/aberration tests
Experiment description: CCRIS mutagenicity studies
Condition notes: Test System: AMES SALMONELLA TYPHIMURIUM; Strain/Indicator: TA100; Metabolic Activation: NONE; Method: STANDARD PLATE
The source made the active and inactive calls. The rule behind the calls is not given here.
Readout name: mutagenic call

# Compound, Val
data = [
    ("O=C(NC(=O)c1c(F)cccc1F)Nc1cc(Cl)c(Oc2ncc(C(F)(F)F)cc2Cl)c(Cl)c1", "inactive; negative"),
    ("C1COCO1", "inactive; negative"),
    ("CC(=O)c1ccc(Cl)c(Cl)c1Cl", "inactive; negative"),
    ("[Cl][Sn][Cl]", "inactive; negative"),
    ("COP(=S)(OC)SCN1C(=O)c2ccccc2C1=O", "active; positive"),
    ("CCCCN(N)CCCC", "inactive; negative"),
    ("O=C(N/N=C/c1ccc([N+](=O)[O-])o1)c1ccc(O)cc1", "active; positive"),
    ("Cc1ccccc1NC(=O)c1csc([N+](=O)[O-])c1", "active; positive"),
    ("CC1(O)CC2CCC1(C)C2(C)C (centres undefined)", "inactive; negative"),
    ("FC(F)C(F)(F)F", "inactive; negative"),
    ("Cc1ccc(N=Nc2ccc(N(CCO)CCO)cc2)cc1", "inactive; negative"),
    ("CC1=C(Cl)C(=O)OC1O (centres undefined)", "active; positive"),
    ("CC(C)NCC(O)COc1cccc2[nH]c3ccccc3c12 (centres undefined)", "inactive; negative"),
    ("CCCCOS(=O)(=O)c1ccccc1", "active; positive"),
    ("NC1CCC(N)CC1 (centres undefined)", "inactive; negative"),
    ("CNc1nncc2ccccc12", "active; positive"),
    ("CCCCCCCCSCn1cc[n+](C)c1", "inactive; negative"),
    ("O=Cc1ccc(COS(=O)(=O)O)o1", "active; positive"),
    ("CC1(C)CC(C(=O)O)C(C)(C)N1[O] (centres undefined)", "inactive; negative"),
    ("NC(=O)CC1CO1 (centres undefined)", "active; positive"),
    ("C[C@H](CCC(=O)O)[C@H]1CC[C@H]2[C@@H]3CC[C@@H]4C[C@H](O)CC[C@]4(C)[C@H]3C[C@H](O)[C@]12C", "inactive; negative"),
    ("COc1cc([N+](=O)[O-])c(O)c(C(C)(C)C)c1", "inactive; negative"),
    ("Clc1cccc(Cl)n1", "inactive; negative"),
    ("COc1ccnc(=O)[nH]1", "active; positive"),
    ("CC(NCc1ccccc1)C(=O)NCc1ccccc1 (centres undefined)", "inactive; negative"),
    ("O=C(Nc1ccccc1)c1csc([N+](=O)[O-])c1", "active; positive"),
    ("O=C/C=C/c1ccccc1", "inactive; negative"),
    ("C=CCc1[c-]cccc1.C=CCc1[c-]cccc1.[Pt+2].c1ccc(P(c2ccccc2)c2ccccc2)cc1", "inactive; negative"),
    ("O=C(/C=N/O)Nc1ccccc1", "inactive; negative"),
]

###

Test system: CCRIS mutagenicity, Ames/micronucleus/aberration tests
Experiment description: CCRIS mutagenicity studies
Condition notes: Test System: AMES SALMONELLA TYPHIMURIUM; Strain/Indicator: TA104; Metabolic Activation: NONE; Method: PREINCUBATION
The source made the active and inactive calls. No rule for the calls is given here.

# Structure, mutagenic call
data = [
    ("CCCCCCCCCc1ccc(O)cc1", "inactive; negative"),
    ("CCOCCOC(C)=O", "inactive; negative"),
    ("O=C/C=C/c1ccccc1", "inactive; negative"),
    ("C=C(C)C(=O)OCCN(C)C", "inactive; negative"),
    ("Cc1ccc(N)cc1", "inactive; negative"),
    ("O=C1C=Cc2ccccc2C1=O", "active; positive"),
    ("O=Cc1ccc(COS(=O)(=O)O)o1", "active; positive"),
    ("O=C(Cl)c1ccccc1Cl", "active; positive"),
    ("O=C(O)/C=C\\C(=O)O", "inactive; negative"),
    ("O=Cc1ccccc1", "inactive; negative"),
    ("Cc1ccc(Cl)cc1", "inactive; negative"),
    ("O=C(O)Cc1ccc(O)c(O)c1", "active; positive"),
    ("O=C1C=Cc2c(ccc3ccccc23)C1=O", "active; positive"),
    ("CCC/C=C/C=O", "active; positive"),
    ("C=O", "active; positive"),
    ("CNc1ccccc1", "inactive; negative"),
    ("Oc1ccc(-c2ccc(O)cc2)cc1", "inactive; negative"),
    ("O=C1C=CC(=O)c2c(O)ccc(O)c21", "active; positive"),
    ("Cc1ccc(C(=O)Cl)cc1", "active; positive"),
]
